Entry source: PubChem BioAssay AID1963825

Item-by-item account of viability, T/C
- assay-overview: Anticancer human tumor 997537-175-T-J1-PDC patient-derived colon adenocarcinoma cell line growth inhibition [POLQ]
- cond: 997537-175-T-J1-PDC complex spheroid viability, combination with POLQ inhibitors; second compound 0.316 µM; first compound 0.01 µM; stronger effect = lower value
- Experimental: Multicellular complex tumor spheroid response to Polymerase (POL) inhibitors (novobiocin, ART-558, RP6685) in combination with a variety of drugs and investigational agents in selected tumor cell lines The POL inhibitors (novobiocin, ART-558, and RP6685) were evaluated both individually and in combination with standard of care and investigational anticancer small molecules within a complex spheroid model of solid tumors. . […]

Guide cases for viability, T/C, answers given:
compound	reported-measurement
CCc1c2c(nc3ccc(O)cc13)-c1cc3c(c(=O)n1C2)COC(=O)[C@]3(O)CC + Nc1ccc(C#CCN(C(=O)Cc2ncc(C(F)(F)F)cc2C(F)(F)F)c2ccc(F)cc2)nn1	65.1%
COc1cccc(OCCCN)c1-c1cc(Nc2cnc(C#N)cn2)n[nH]1 + Nc1ccc(C#CCN(C(=O)Cc2ncc(C(F)(F)F)cc2C(F)(F)F)c2ccc(F)cc2)nn1	89.5%
CCc1c2c(nc3ccc(O)cc13)-c1cc3c(c(=O)n1C2)COC(=O)[C@]3(O)CC + COC1C(OC(N)=O)C(O)C(Oc2ccc3c(O)c(NC(=O)c4ccc(O)c(CC=C(C)C)c4)c(=O)oc3c2C)OC1(C)C	73%

Q) What value of viability, T/C has been recorded for this entry: COc1cccc(OCCCN)c1-c1cc(Nc2cnc(C#N)cn2)n[nH]1 + Cc1cccc(N(C)C(=O)C2C(O)CCN2c2nc(C)cc(C(F)(F)F)c2C#N)c1
A) 79.8%

Q) What value of viability, T/C has been recorded for this entry: CC[C@@]1(O)C(=O)OCc2c1cc1n(c2=O)Cc2cc3c(CN(C)C)c(O)ccc3nc2-1 + Cc1cccc(N(C)C(=O)C2C(O)CCN2c2nc(C)cc(C(F)(F)F)c2C#N)c1
A) 95.1%

###

Item-by-item account of viability, T/C
- assay-overview: Anticancer human tumor 997537-175-T-J1-PDC cell line growth inhibition [POLQ];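 further: luminescence signal used as a surrogate for viable cells; spheroids exposed to drugs for seven days before readout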
- cond: 997537-175-T-J1-PDC complex spheroid viability, combination with POLQ inhibitors; second compound 0.316 µM; first compound 0.316 µM; stronger effect = lower value
Numeric only. Scale: %

Guide cases for viability, T/C, answers given:
compound	experimental-endpoint	unit-tag	reported-measurement
COc1cccc(OCCCN)c1-c1cc(Nc2cnc(C#N)cn2)n[nH]1 + Nc1ccc(C#CCN(C(=O)Cc2ncc(C(F)(F)F)cc2C(F)(F)F)c2ccc(F)cc2)nn1	viability, T/C	%	18
COc1cccc(OCCCN)c1-c1cc(Nc2cnc(C#N)cn2)n[nH]1 + COC1C(OC(N)=O)C(O)C(Oc2ccc3c(O)c(NC(=O)c4ccc(O)c(CC=C(C)C)c4)c(=O)oc3c2C)OC1(C)C	viability, T/C	%	16.9
COc1cc(C2c3cc4c(cc3C(OC3OC5COC(C)OC5C(O)C3O)C3COC(=O)C23)OCO4)cc(OC)c1O (stereo not given) + COC1C(OC(N)=O)C(O)C(Oc2ccc3c(O)c(NC(=O)c4ccc(O)c(CC=C(C)C)c4)c(=O)oc3c2C)OC1(C)C	viability, T/C	%	99.2

Q) What value of viability, T/C has been recorded for this entry: COc1cc2cc(C(=O)CCC(=O)O)sc2cc1OC + Nc1ccc(C#CCN(C(=O)Cc2ncc(C(F)(F)F)cc2C(F)(F)F)c2ccc(F)cc2)nn1
A) 109

Q) What value of viability, T/C has been recorded for this entry: CC(C)n1c(=O)n(C)c2cnc3cc(F)c(-c4ccc(OCCCN5CCCCC5)nc4)cc3c21 + Nc1ccc(C#CCN(C(=O)Cc2ncc(C(F)(F)F)cc2C(F)(F)F)c2ccc(F)cc2)nn1
A) 107

###

- assay-overview: Anticancer human tumor 997537-175-T-J1-PDC cell line growth inhibition [POLQ];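 further: luminescence signal used as a surrogate for viable cells; spheroids exposed to drugs for seven days before readout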
- cond: 997537-175-T-J1-PDC complex spheroid viability, combination with POLQ inhibitors; curve of first compound; second compound 1 µM
- Description: Multicellular complex tumor spheroid response to Polymerase (POL) inhibitors (novobiocin, ART-558, RP6685) in combination with a variety of drugs and investigational agents in selected tumor cell lines The POL inhibitors (novobiocin, ART-558, and RP6685) were evaluated both individually and in combination with standard of care and investigational anticancer small molecules within a complex spheroid model of solid tumors. . […]
experimental-endpoint: IC50

Guide cases for IC50, answers given:
compound	IC50
COc1cc2cc(C(=O)CCC(=O)O)sc2cc1OC + Cc1cccc(N(C)C(=O)C2C(O)CCN2c2nc(C)cc(C(F)(F)F)c2C#N)c1	> 10 µM
CC1COCCN1c1cc(C2(O)CC3CCC(C2)O3)c2cnn(-c3ccn[nH]3)c2n1 (stereo not given) + Nc1ccc(C#CCN(C(=O)Cc2ncc(C(F)(F)F)cc2C(F)(F)F)c2ccc(F)cc2)nn1	6.2 µM
CC(=O)O[C@H]1C(=O)[C@@]2(C)[C@H]([C@H](OC(=O)c3ccccc3)[C@]3(O)C[C@H](OC(=O)[C@H](O)[C@@H](NC(=O)c4ccccc4)c4ccccc4)C(C)=C1C3(C)C)[C@]1(OC(C)=O)CO[C@@H]1C[C@@H]2O + Nc1ccc(C#CCN(C(=O)Cc2ncc(C(F)(F)F)cc2C(F)(F)F)c2ccc(F)cc2)nn1	0.0148 µM
CC1COCCN1c1cc(C2(S(C)(=N)=O)CC2)nc(-c2ccnc3[nH]ccc23)n1 (stereo not given) + COC1C(OC(N)=O)C(O)C(Oc2ccc3c(O)c(NC(=O)c4ccc(O)c(CC=C(C)C)c4)c(=O)oc3c2C)OC1(C)C	> 10 µM

Q) What value of IC50 has been recorded for this entry: CC(C)n1c(=O)n(C)c2cnc3cc(F)c(-c4ccc(OCCCN5CCCCC5)nc4)cc3c21 + Nc1ccc(C#CCN(C(=O)Cc2ncc(C(F)(F)F)cc2C(F)(F)F)c2ccc(F)cc2)nn1
A) > 10 µM

###

- assay-overview: Anticancer human tumor 997537-175-T-J1-PDC cell line growth inhibition [POLQ];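 further: luminescence signal used as a surrogate for viable cells; spheroids exposed to drugs for seven days before readout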
- cond: 997537-175-T-J1-PDC complex spheroid viability, combination with POLQ inhibitors; second compound 1 µM; first compound 0.316 µM; stronger effect = lower value
experimental-endpoint: viability, T/C (%)
Numeric only. Scale: %

compound	unit-tag	viability, T/C
COc1ccc([C@@H](O)c2cc(-c3ncnc4cc(N5CCOCC5)ccc34)c(F)cc2Cl)nn1 + Cc1cccc(N(C)C(=O)C2C(O)CCN2c2nc(C)cc(C(F)(F)F)c2C#N)c1	%	91.7
CCCS(=O)(=O)Nc1ccc(F)c(C(=O)c2c[nH]c3ncc(-c4ccc(Cl)cc4)cc23)c1F + Nc1ccc(C#CCN(C(=O)Cc2ncc(C(F)(F)F)cc2C(F)(F)F)c2ccc(F)cc2)nn1	%	84.2

Here's the next entry for you.
Q) What value of viability, T/C has been recorded for this entry: CNCc1ccc(-c2[nH]c3cc(F)cc4c3c2CCNC4=O)cc1 + Nc1ccc(C#CCN(C(=O)Cc2ncc(C(F)(F)F)cc2C(F)(F)F)c2ccc(F)cc2)nn1
A) 102

###

- assay-overview: Anticancer human tumor 997537-175-T-J1-PDC cell line growth inhibition [POLQ]; active means viability on the fitted dose curve at most 10% of control; inactive means the rest;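 further: luminescence signal used as a surrogate for viable cells; spheroids exposed to drugs for seven days before readout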
- cond: 997537-175-T-J1-PDC complex spheroid viability, combination with POLQ inhibitors; second compound 10 µM; first compound 1 µM
API: response.call in true = active, false = inactive

Solved entries (count: 3):
compound	assigned-category
CNCc1ccc(-c2[nH]c3cc(F)cc4c3c2CCNC4=O)cc1 + COC1C(OC(N)=O)C(O)C(Oc2ccc3c(O)c(NC(=O)c4ccc(O)c(CC=C(C)C)c4)c(=O)oc3c2C)OC1(C)C	false
CC1COCCN1c1cc(C2(O)CC3CCC(C2)O3)c2cnn(-c3ccn[nH]3)c2n1 (stereo not given) + Cc1cccc(N(C)C(=O)C2C(O)CCN2c2nc(C)cc(C(F)(F)F)c2C#N)c1	false
CCc1cc2c(N3CCc4c(cc(Cn5ccnc5)cc4-c4cn(C)nc4C(F)(F)F)C3=O)cc(C)nc2c(OC)n1 + Cc1cccc(N(C)C(=O)C2C(O)CCN2c2nc(C)cc(C(F)(F)F)c2C#N)c1	false

Q) # fetch the recorded call for CCc1cc2c(N3CCc4c(cc(Cn5ccnc5)cc4-c4cn(C)nc4C(F)(F)F)C3=O)ccnc2c(OC)n1 + Nc1ccc(C#CCN(C(=O)Cc2ncc(C(F)(F)F)cc2C(F)(F)F)c2ccc(F)cc2)nn1 here
A) false

Q) # fetch the recorded call for O=c1[nH]cc(F)c(=O)[nH]1 + COC1C(OC(N)=O)C(O)C(Oc2ccc3c(O)c(NC(=O)c4ccc(O)c(CC=C(C)C)c4)c(=O)oc3c2C)OC1(C)C here
A) false

Q) # fetch the recorded call for CCc1c2c(nc3ccc(O)cc13)-c1cc3c(c(=O)n1C2)COC(=O)[C@]3(O)CC + COC1C(OC(N)=O)C(O)C(Oc2ccc3c(O)c(NC(=O)c4ccc(O)c(CC=C(C)C)c4)c(=O)oc3c2C)OC1(C)C here
A) true

Q) # fetch the recorded call for O=c1[nH]cc(F)c(=O)[nH]1 + Nc1ccc(C#CCN(C(=O)Cc2ncc(C(F)(F)F)cc2C(F)(F)F)c2ccc(F)cc2)nn1 here
A) false
